These data points were gathered from patent US6962931B2.

experiment: PK in rat, oils or preformed emulsions by oral gavage; design: species or system Sprague Dawley rats; settings: Sprague-Dawley, in vivo, 500 mg/kg, crystalline ethanolate, Miglyol/Cremophor/water 40/10/50, 500 mg/kg, Tlast = 9 hr
measured_parameter: AUC(0-t) (ng·h/mL)
Numbers only, in ng·h/mL.

Exercise: AUC(0-t) for CCOC(=O)N1c2ccc(C(F)(F)F)cc2[C@@H](N(Cc2cc(C(F)(F)F)cc(C(F)(F)F)c2)C(=O)OC)C[C@H]1CC ?
Key: 18000

----------
test: Microsolubility estimate by repeated addition of vehicle; assay type: physicochemical; details: Safflower oil, oil or lipid, thermodynamic from solid; read-out: Microsolubility
Exercise: state measured Solubility for each of the molecules provided.

Examples with answers:
1. CCOC(=O)N1c2ccc(C(F)(F)F)cc2[C@@H](N(C=O)Cc2cc(C(F)(F)F)cc(C(F)(F)F)c2)C[C@H]1C :: < 300 mg/mL
2. CCOC(=O)N1c2ccc(C(F)(F)F)cc2[C@@H](N(C=O)Cc2cc(C(F)(F)F)cc(C(F)(F)F)c2)C[C@H]1CC :: < 300 mg/mL
3. CCOC(=O)N1c2ccc(C(F)(F)F)cc2[C@@H](N(Cc2cc(C(F)(F)F)cc(C(F)(F)F)c2)C(=O)OC)C[C@H]1C :: > 300 mg/mL

Now for a further molecule.
Exercise: Record request: Solubility value, item CCOC(=O)N1c2ccc(C(F)(F)F)cc2[C@@H](N(Cc2cc(C(F)(F)F)cc(C(F)(F)F)c2)C(=O)OC)C[C@H]1CC
Key: > 300 mg/mL
